test: Plasma stability assay, mouse; format: in vitro ADME; details: percent remaining, 1 µM, 37 °C, 5 hours
Entries annotated with measured Plasma Stability (mouse)
Expressed in %, but write only the number.

Example entries begin here.
{"columns": ["compound structure string", "unit info", "measured number"],
 "data": [
  ["CCC(=O)Nc1cccc([C@@H](CCc2ccc(OC)c(OC)c2)OC(=O)[C@@H]2CCCCN2C(=O)C(=O)C(C)(C)CC)c1", "%", 18],
  ["C=CC(=O)Nc1cccc([C@@H](CCc2ccc(OC)c(OC)c2)OC(=O)[C@@H]2CCCCN2C(=O)C(=O)C(C)(C)CC)c1", "%", 48],
  ["C=CC(=O)OCC(C)(C)C(=O)C(=O)N1CCCC[C@H]1C(=O)O[C@H](CCc1ccc(OC)c(OC)c1)c1ccccc1", "%", 0],
  ["C=CC(=O)Nc1ccccc1[C@@H](CCc1ccc(OC)c(OC)c1)OC(=O)[C@@H]1CCCCN1C(=O)C(=O)C(C)(C)CC", "%", 31]
]}

Moving on to the next compound.
Asked: Query (compound): `CCC(=O)OCC(C)(C)C(=O)C(=O)N1CCCC[C@H]1C(=O)O[C@H](CCc1ccc(OC)c(OC)c1)c1ccccc1` ; field requested: Plasma Stability (mouse)
Given back: 0

* * *

experiment: Plasma stability assay, human; format: in vitro ADME; details: percent remaining, 1 µM, 37 °C, 5 hours
assay endpoint: Plasma Stability (human) (%)
Please give a number only; it is taken to be in %.

Examples from the recorded data:
{"columns": ["compound", "Plasma Stability (human) (%)"],
 "data": [
  ["C=CC(=O)OCC(C)(C)C(=O)C(=O)N1CCCC[C@H]1C(=O)O[C@H](CCc1ccc(OC)c(OC)c1)c1ccccc1 [2c]", 0],
  ["C=CC(=O)Nc1ccccc1[C@@H](CCc1ccc(OC)c(OC)c1)OC(=O)[C@@H]1CCCCN1C(=O)C(=O)C(C)(C)CC [1c]", 62],
  ["C=CC(=O)Nc1cccc([C@@H](CCc2ccc(OC)c(OC)c2)OC(=O)[C@@H]2CCCCN2C(=O)C(=O)C(C)(C)CC)c1 [1a]", 92],
  ["CCC(=O)Nc1cccc([C@@H](CCc2ccc(OC)c(OC)c2)OC(=O)[C@@H]2CCCCN2C(=O)C(=O)C(C)(C)CC)c1 [1b]", 90]
]}

Asked: Name the recorded Plasma Stability (human) for CCC(=O)OCC(C)(C)C(=O)C(=O)N1CCCC[C@H]1C(=O)O[C@H](CCc1ccc(OC)c(OC)c1)c1ccccc1 [2d] .
Given back: 1

* * *

target: FBD35 (PfFKBP35 binding domain) (Plasmodium falciparum); construct: FKBP35 Q5 -A128; 6His-SUMO (N, cleaved yes); made in house; host or cells: E. coli BL21 DE3; test: Differential scanning calorimetry, FBD35; settings: read-out: FBD35 ΔTM
Sequence (Q8I4V8 5-128): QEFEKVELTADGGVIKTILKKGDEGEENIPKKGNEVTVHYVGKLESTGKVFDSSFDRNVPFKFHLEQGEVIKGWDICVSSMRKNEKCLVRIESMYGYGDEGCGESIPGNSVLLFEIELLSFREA
In this section, each of the compounds is paired with its reported ΔTm at 40 µM.
Unit °C implied. Number only.

{"columns": ["compound", "assay endpoint", "measured number"],
 "data": [
  ["CCC(C)(C)C(=O)C(=O)N1CCCC[C@H]1C(=O)O[C@H](CCc1ccc(OC)c(OC)c1)c1cccc(N)c1 [SLF, reference compound]", "ΔTm at 40 µM", 2.9],
  ["C=CC(=O)Nc1ccccc1[C@@H](CCc1ccc(OC)c(OC)c1)OC(=O)[C@@H]1CCCCN1C(=O)C(=O)C(C)(C)CC [1c]", "ΔTm at 40 µM", 9.6],
  ["CCC(C)(C)C(=O)C(=O)N1CCCC[C@H]1C(=O)O[C@H](CCc1ccc(OC)c(OC)c1)c1cccc(OCC(=O)O)c1 [SLFb, reference compound]", "ΔTm at 40 µM", 2.8],
  ["CCC(=O)OCC(C)(C)C(=O)C(=O)N1CCCC[C@H]1C(=O)O[C@H](CCc1ccc(OC)c(OC)c1)c1ccccc1 [2d]", "ΔTm at 40 µM", 3],
  ["C=CC(=O)Nc1cccc([C@@H](CCc2ccc(OC)c(OC)c2)OC(=O)[C@@H]2CCCCN2C(=O)C(=O)c2cc(OC)c(OC)c(OC)c2)c1 [1e]", "ΔTm at 40 µM", 1.5]
]}

Asked: Quick one: ΔTm at 40 µM for C=CC(=O)OCC(C)(C)C(=O)C(=O)N1CCCC[C@H]1C(=O)O[C@H](CCc1ccc(OC)c(OC)c1)c1ccccc1 [2c] ?
Given back: 14.5
